Target: Full-length, GST-tagged, human CaMKIIδ (Homo sapiens, UniProt Q13557)
Construct: Full-Length, Glutathione-S-Transferase(GST)-Tagged, Human CaMKIIδ was purchased from Carna Biosciences; purchased Carna Biosciences 02-111
Sequence (Q13557 1-478 isoform Q13557-12): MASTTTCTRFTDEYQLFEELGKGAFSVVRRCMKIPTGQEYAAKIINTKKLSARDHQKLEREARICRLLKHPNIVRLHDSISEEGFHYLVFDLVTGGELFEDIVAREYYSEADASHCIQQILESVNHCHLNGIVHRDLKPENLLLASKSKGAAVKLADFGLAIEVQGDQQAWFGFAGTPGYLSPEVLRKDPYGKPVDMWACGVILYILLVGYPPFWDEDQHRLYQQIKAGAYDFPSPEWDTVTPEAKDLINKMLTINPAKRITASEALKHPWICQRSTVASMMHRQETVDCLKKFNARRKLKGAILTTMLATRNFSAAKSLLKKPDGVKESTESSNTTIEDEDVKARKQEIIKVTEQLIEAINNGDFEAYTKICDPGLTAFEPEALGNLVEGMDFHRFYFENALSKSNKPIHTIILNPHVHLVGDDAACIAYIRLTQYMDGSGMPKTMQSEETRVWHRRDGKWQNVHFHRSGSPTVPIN
Assay: CaMKIIδ binding assay (TR-FRET with BODIPY-labeled probe ligand)
Details: Table 2; activity class for CaMKIIδ
pIC50: −log10 of the molar value.
# pIC50 per entry

1) COc1cc(N2CCOC(CN(C)C)C2)ccc1Nc1ncc(-c2ccc(Cl)c(O[C@@H](C)Cn3cnnn3)c2)cn1 (stereo partly drawn) [Example 688]    > 8.00
2) CCN(CC)C(=O)Cn1cc(Nc2ncc(-c3ccc(Cl)c(O[C@@H](C)Cn4cnnn4)c3)cn2)c(C(F)(F)F)n1    7.00 to 8.00
3) CCOC(=O)C1CCC(n2cc(Nc3ncc(-c4ccc(Cl)c(O[C@@H](C)Cn5cnnn5)c4)cn3)c(C(F)(F)F)n2)CC1 (stereo partly drawn)    7.00 to 8.00

What does the record list as pIC50 for C[C@@H](Cn1cnnn1)Oc1cc(-c2cnc(Nc3cn([C@@H]4C[C@H]5CC[C@@H](C4)N5C4CCOCC4)nc3C(F)(F)F)nc2)ccc1Cl ? > 8.00

What does the data say about its pIC50? Entry: C[C@@H](Cn1cnnn1)Oc1cc(-c2cnc(Nc3cn(CCN4CCOCC4)nc3C(F)(F)F)nc2)ccc1Cl 7.00 to 8.00

Which pIC50 reading was recorded for the compound COc1cc2c(cc1Nc1ncc(-c3ccc(Cl)c(O[C@@H](C)Cn4cnnn4)c3)cn1)NCCC2 ? > 8.00

Look at this compound and give its reported pIC50. C[C@@H](Cn1cnnn1)Oc1cc(-c2cnc(Nc3cn(C4CCCN(C5COC5)C4)nc3C(F)(F)F)nc2)ccc1Cl (stereo partly drawn) 7.00 to 8.00
